Reference for the values: paper PMC4336329

Please respond with reported hERG current change (%, negative = inhibition) at 1uM for every item in the list.
Target: human ether-à-go-go-related gene (hERG) potassium channel (human, UniProt Q12809)
Sequence (Q12809 whole entry, looked up): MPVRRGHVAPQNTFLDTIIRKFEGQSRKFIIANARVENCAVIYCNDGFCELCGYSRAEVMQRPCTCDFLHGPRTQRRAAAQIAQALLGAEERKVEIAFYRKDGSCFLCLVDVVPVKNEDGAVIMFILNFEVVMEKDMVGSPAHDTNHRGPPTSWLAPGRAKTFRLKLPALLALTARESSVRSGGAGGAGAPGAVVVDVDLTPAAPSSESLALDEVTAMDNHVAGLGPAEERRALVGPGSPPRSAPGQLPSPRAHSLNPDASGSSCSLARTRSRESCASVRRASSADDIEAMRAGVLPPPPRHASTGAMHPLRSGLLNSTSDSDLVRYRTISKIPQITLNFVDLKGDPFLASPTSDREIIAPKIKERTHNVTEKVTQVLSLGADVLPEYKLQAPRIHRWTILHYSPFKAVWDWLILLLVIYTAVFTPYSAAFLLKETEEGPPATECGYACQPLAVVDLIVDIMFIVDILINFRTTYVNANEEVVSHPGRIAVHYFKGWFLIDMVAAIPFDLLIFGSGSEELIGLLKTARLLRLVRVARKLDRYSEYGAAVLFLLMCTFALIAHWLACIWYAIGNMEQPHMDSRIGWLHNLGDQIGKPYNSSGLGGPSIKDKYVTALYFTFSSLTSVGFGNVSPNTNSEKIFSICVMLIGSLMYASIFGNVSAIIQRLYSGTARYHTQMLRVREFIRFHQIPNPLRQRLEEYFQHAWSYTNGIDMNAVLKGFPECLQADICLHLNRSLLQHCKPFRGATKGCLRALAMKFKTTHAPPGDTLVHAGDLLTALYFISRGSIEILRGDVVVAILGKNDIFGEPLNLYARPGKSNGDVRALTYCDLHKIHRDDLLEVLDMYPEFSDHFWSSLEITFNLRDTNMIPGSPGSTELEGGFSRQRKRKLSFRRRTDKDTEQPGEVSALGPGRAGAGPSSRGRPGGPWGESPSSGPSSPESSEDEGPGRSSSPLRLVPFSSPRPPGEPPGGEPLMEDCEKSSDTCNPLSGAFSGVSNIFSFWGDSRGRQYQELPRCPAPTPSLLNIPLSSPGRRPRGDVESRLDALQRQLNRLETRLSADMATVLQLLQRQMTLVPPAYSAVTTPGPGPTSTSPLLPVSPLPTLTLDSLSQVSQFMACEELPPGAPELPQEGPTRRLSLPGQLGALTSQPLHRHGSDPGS
Assay: primary screen, population patch clamp on CHO cells stably expressing hERG; higher = less effect of the substance
Screen size: about 310,000 compounds; about 2,200 (0.71%) showed an effect of 50% or more. The effect is printed as a negative number. The entries come from a sample that favours strong results as a whole.
Give just the numeric value; % need not be written.

Enquiry: Given "CCCCCCCN1CCC(=O)N([C@H](CO)Cc2ccccc2)CC1" , state its recorded hERG current change (%, negative = inhibition) at 1uM.
Return: -77.2

Enquiry: Follow-up entry: OC1(c2ccccc2)c2ccccc2-c2ncccc21 (stereo not shown)
Return: 5.63

Enquiry: Same again, this time with "COc1ccc(SC[C@H](Cc2ccccc2)N2CCN(CCc3ccccc3)CCC2=O)cc1"
Return: -43.2

Enquiry: And what about the molecule "Cc1c(O)ccc2c(CN3CCN(C/C=C/c4ccccc4)CC3)cc(=O)oc12" ?
Return: -36.2

Enquiry: Record: "O=c1cc(CN2CCN(S(=O)(=O)/C=C/c3ccccc3)CC2)c2ccc(O)cc2o1"
Return: -29.8

Enquiry: Another molecule to check: "Cc1nn2c(-c3ccc(Cl)cc3Cl)nnc2s1"
Return: -0.908

Enquiry: Can you check "O=C1CCN(CCCc2ccccc2)CCN1[C@H](CO)Cc1ccccc1" next?
Return: -12

Enquiry: Okay, and "Cc1cc2oc(=O)cc(CN3CCN(C/C=C/c4ccccc4)CC3)c2cc1O" ?
Return: -67.8

Enquiry: Do the same for "CCCN1CCC(=O)N([C@H](CO)Cc2ccccc2)CC1" please
Return: 6.98

Enquiry: Now consider CCOC(=O)C(C)n1cnc2c(nnn2Cc2ccc(C)cc2)c1=O (stereo not shown) .
Return: 11.6

====

Target: human ether-à-go-go-related gene (hERG) potassium channel (human)
Experiment: primary screen, population patch clamp on CHO cells stably expressing hERG; higher = less effect of the substance
Screen size: about 310,000 compounds; about 2,200 (0.71%) showed an effect of 50% or more. Effects have a minus sign here. What follows is part of a selection rich in strong results, with near analogues and random picks from the rest.
I'd appreciate it if you could supply hERG current change (%, negative = inhibition) at 1uM values for the items below.
Give your result in % as a bare value.

Enquiry: API: value(readout= hERG current change (%, negative = inhibition) at 1uM, system= human ether-à-go-go-related gene (hERG) potassium channel (human), query= "OC1(c2ccc(Cl)cc2)CCN(Cc2c[nH]c3ccccc23)CC1" )
Return: -27.6

Enquiry: And the next one, "Cc1ccc(S(=O)(=O)c2cc3c(=O)n4ccccc4nc3n(CCCN3CCOCC3)c2=N)cc1C" ?
Return: 2.37

Enquiry: Here is the next compound: "N=c1c(C(=O)NCCN2CCOCC2)cc2c(=O)n3ccccc3nc2n1Cc1ccc(F)cc1"
Return: -19.2

Enquiry: Okay, and "O=[N+]([O-])c1ccc(N2CCN(Cc3ccc4c(c3)OCO4)CC2)nc1" ?
Return: -29.2

Enquiry: What would you report for "CCOCCCN(C)C1CCN(C(=O)c2oc3ccccc3c2NC(=O)Cc2cccc([N+](=O)[O-])c2)CC1" ?
Return: -83.8

Enquiry: Now try "CCCN(CCC)C(=O)c1oc2ccccc2c1NC(=O)Cc1cccc(OC)c1" .
Return: 19.2

Enquiry: Also, "COc1cc(/C=C/C(=O)OCC(=O)N2CCCc3ccccc32)ccc1OCC#N" please.
Return: 14.6

Enquiry: Input "N=c1c(C(=O)NCc2ccccc2)cc2c(=O)n3ccccc3nc2n1CCCN1CCOCC1"
Return: -80.7

Enquiry: And for "Cl.O=[N+]([O-])c1ccc2ncnc(N3CCN(Cc4ccc5c(c4)OCO5)CC3)c2c1" ?
Return: 11.4

Enquiry: Another: "O=C(NCCN1CCOCC1)c1cc2c(=O)n3ccccc3nc2n1Cc1ccccc1"
Return: 8.53

Enquiry: Query CCCOc1ccc(N2CC(C(=O)Nc3ccccc3C(=O)NCc3ccco3)CC2=O)cc1 (stereo not drawn) next
Return: -29.5

Enquiry: Also need "COc1ccc(CC(=O)Nc2c(C(=O)N3CCN(c4ccccc4)CC3)oc3ccccc23)cc1OC" , thanks.
Return: -8.82

Enquiry: What would you report for "CCOCCCn1c(=N)c(S(=O)(=O)c2ccc(C)cc2)cc2c(=O)n3cc(C)ccc3nc21" ?
Return: 16.1

Enquiry: Do the same for "N=c1c(S(=O)(=O)c2ccccc2)cc2c(=O)n3ccccc3nc2n1CCCN1CCOCC1" please
Return: -42.5

Enquiry: Another compound: "COc1ccc(CC(=O)Nc2c(C(=O)N3CCN(c4ncccn4)CC3)oc3ccccc23)cc1"
Return: -21.4

Enquiry: Lookup "CC(C)OCCCn1c(=N)c(C(N)=S)cc2c(=O)n3ccccc3nc21"
Return: -74.5

Enquiry: Likewise for "COc1ccc(CCNC(=O)COC(=O)/C=C/c2cccs2)cc1OC" ?
Return: 11.7

Enquiry: How about "CCOCCCN(C)C1CCN(C(=O)c2oc3ccccc3c2NC(=O)Cc2ccc([N+](=O)[O-])cc2)CC1" ?
Return: -89.1

====

Target: human ether-à-go-go-related gene (hERG) potassium channel (human, UniProt Q12809)
Test: primary screen, population patch clamp on CHO cells stably expressing hERG; higher = less effect of the substance
The whole screen tested about 310,000 compounds, of which about 2,200 (0.71%) showed an effect of 50% or more. Effects have a minus sign here. For the sample, strong results were picked, then their nearest neighbours and some compounds at random.
observation type: hERG current change (%, negative = inhibition) at 1uM (%)
Numbers only here, please. The scale is %.

Enquiry: Please provide the recorded hERG current change (%, negative = inhibition) at 1uM for "O=C(CN1CCN(c2ccc(F)cc2)CC1)Nc1ccc2c(c1)OCCO2" , tested on human ether-à-go-go-related gene (hERG) potassium channel (human, UniProt Q12809).
Return: 14.1

Enquiry: Query "O=C(O)C(=O)O.O=[N+]([O-])c1ccc(OCCN2CCCCCC2)cc1" next
Return: -74.5

Enquiry: Here is the next compound: COCCn1nnnc1C(c1ccccn1)N1CCN(c2cc(C)ccc2C)CC1.Cl (stereo not shown)
Return: 9.25

Enquiry: Input "O=[N+]([O-])c1ccc(CN2CCC(Cc3ccccc3)CC2)cc1"
Return: -9.62

Enquiry: Please do the same for "O=C(O)C(=O)O.O=[N+]([O-])c1ccc(OCCN2CCNCC2)cc1" as well.
Return: -52.2

Enquiry: Then this compound: "COC(=O)c1c(NC(=O)CN2CCN(Cc3ccc4c(c3)OCO4)CC2)sc(C)c1C.O=C(O)C(=O)O"
Return: 5.45

Enquiry: Likewise for "O=C(CN1CCN(Cc2ccc3c(c2)OCO3)CC1)Nc1ccc2c(c1)OCO2" ?
Return: -64.3

Enquiry: Another compound: CC(C(=O)N1CCc2ccccc21)N1CCN(Cc2ccccc2)CC1 (stereo not shown)
Return: 4.18

Enquiry: Entry "COc1ccc(CN2CCN(c3ccccc3F)CC2)c(OC)c1" please
Return: -57.8

Enquiry: "O=C(CN1CCN(S(=O)(=O)c2ccc(F)cc2)CC1)Nc1ccc2c(c1)OCO2" , same question.
Return: -8

Enquiry: How about this compound: "Cc1cc(=O)n(C)c(=O)n1CCCCOc1cccc([N+](=O)[O-])c1"
Return: 9.25

Enquiry: Try this compound too: "O=C(CN1CCN(Cc2ccc3c(c2)OCO3)CC1)Nc1ccc(N2CCOCC2)cc1"
Return: 8.8

Enquiry: Now consider "O=C(CN1C(=O)c2ccccc2C1=O)Nc1ccccc1C(=O)NC1CCCCCC1" and answer again.
Return: 6.73

Enquiry: Could you do the same for "COc1ccc(CN2CCN(Cc3ccccc3)CC2)c(OC)c1" , please?
Return: -43.8

Enquiry: Query "COc1ccc(CN2CCN(c3ccccc3F)CC2)cc1O" next
Return: -51.2

Enquiry: Follow-up item: "NC(=O)CN1CCN(Cc2ccc3c(c2)OCO3)CC1"
Return: 22.5

Enquiry: "CCOc1cc(NC(=S)NCCCN2CCOCC2)c(OCC)cc1NC(=O)c1ccccc1" , same question.
Return: 16.1

Enquiry: And "Cc1cc(=O)n(C)c(=O)n1CCCCOc1ccc([N+](=O)[O-])cc1" ?
Return: -66.8

Enquiry: Next compound: "N#Cc1ccc(C(=O)Nc2cc(-c3ccccc3)nn2-c2ccccc2)cc1"
Return: 0.56

Enquiry: # repeat for "Cc1ccc(OCCN2CCNCC2)c([N+](=O)[O-])c1.O=C(O)C(=O)O"
Return: 17.4

Enquiry: Param item: "O=C(CN1CCN(Cc2ccccc2)CC1)Nc1nc2ccccc2s1"
Return: -24.1

Enquiry: Lookup COc1ccc(C2NC(=O)c3ccccc3O2)cc1OC (stereo not shown)
Return: 8.88

Enquiry: What do you have for "Cc1ccc(C2=NN(CC(=O)O)C(=O)CC2)cc1" ?
Return: -9.99

Enquiry: Same lookup for "COc1cc(CN2CCN(c3ccccc3F)CC2)cc(OC)c1O" , please.
Return: 2.78

Enquiry: What do you get for "CC1CCN(CCCCOc2ccc(Br)cc2)CC1" ?
Return: -30.4

Enquiry: Okay, and "O=C(CC1CCCC1)Nc1nnc(C2CC2)s1" ?
Return: 11.5

Enquiry: Please give the result for "COC(=O)c1ccsc1NC(=O)CN1CCN(Cc2ccc3c(c2)OCO3)CC1" too.
Return: -59.7

Enquiry: Same thing, different compound: CC(NCC(=O)NCCc1ccc(S(N)(=O)=O)cc1)c1ccc(F)cc1 (stereo not shown)
Return: 15.1

Enquiry: Likewise for "CC1CCN(CCCCOc2ccc([N+](=O)[O-])cc2)CC1" ?
Return: -77.8

Enquiry: Here is the next compound: "O=C(CN1CCN(Cc2ccc(F)cc2)CC1)Nc1nc2ccccc2s1"
Return: -54

Enquiry: Okay, and "Fc1ccc(OCCOCCN2CCNCC2)cc1.O=C(O)C(=O)O" ?
Return: 10.4

Enquiry: # repeat for "COc1ccc(CN2CCN(c3ccccc3OC)CC2)c(OC)c1.O=C(O)C(=O)O"
Return: -47.7

Enquiry: Try "Cc1cc(=O)n(C)c(=O)n1CCCCCCOc1ccc([N+](=O)[O-])cc1" next.
Return: -11.1

Enquiry: Input "COc1ccccc1N1C(=O)[C@@H]2[C@H](C1=O)[C@H](C(=O)c1ccc(OC(C)=O)cc1)N1N=CC=C[C@@H]21"
Return: 15.9

Enquiry: // repeat for Cc1cc(C)c(S(=O)(=O)NCC2CCC(C(=O)NCCCN3CCC(C)CC3)CC2)c(C)c1 (stereo not shown) and report
Return: -52.9

Enquiry: Follow-up entry: CCCCN(C)CCCNC(=O)C1CCC(CNS(=O)(=O)c2c(C)cc(C)cc2C)CC1 (stereo not shown)
Return: -76.3

Enquiry: And what about the compound "COc1ccc(CN2CCN(Cc3ccccc3F)CC2)c(OC)c1.O=C(O)C(=O)O" ?
Return: -36

Enquiry: Likewise for "CCOc1ccc(OCCN2CCCCC2)cc1.O=C(O)C(=O)O" ?
Return: -4.9

Enquiry: One more compound: "Nc1nnc(SCc2nc3scc(-c4ccccc4)c3c(=O)[nH]2)s1"
Return: 15.6

Enquiry: What about "CC(C)NC(=O)C1CCN(C2CCN(C(=O)c3cc4c(s3)CCCCC4)CC2)CC1" ?
Return: 6.33
